assay: Potency ratio was determined against LoVoS versus FAA (Flavone acetic acid); assay type: functional
Entries and their Potency ratio
TEST READOUT: Potency ratio

{"ENTRY SMILES": "COc1c(-c2ccccc2Cl)oc2c(CC(=O)O)cccc2c1=O", "RESULT NUMBER": 0.9}
{"ENTRY SMILES": "CCOc1c(-c2ccccc2)oc2c(CC(=O)O)cccc2c1=O", "RESULT NUMBER": 0.9}
{"ENTRY SMILES": "COc1cccc(-c2oc3c(CC(=O)O)cccc3c(=O)c2OC)c1", "RESULT NUMBER": 0.7}
{"ENTRY SMILES": "COc1ccccc1-c1oc2c(CC(=O)O)cccc2c(=O)c1OC", "RESULT NUMBER": 0.6}
{"ENTRY SMILES": "COc1c(-c2ccc(C)cc2)oc2c(CC(=O)O)cccc2c1=O", "RESULT NUMBER": 0.9}
{"ENTRY SMILES": "COc1c(-c2cccc(C)c2)oc2c(CC(=O)O)cccc2c1=O", "RESULT NUMBER": 0.8}
{"ENTRY SMILES": "COc1ccc(-c2oc3c(CC(=O)O)cccc3c(=O)c2OC)cc1", "RESULT NUMBER": 0.9}
